Molecular target: T1, 4H4038-AA
T1 chain: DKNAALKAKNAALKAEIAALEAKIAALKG
Experiment: two-hybrid library CCmax;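 note: natural log of median RNA to DNA barcode read ratio; higher means stronger binding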
Details: mean of both orientations
measured_metric: interaction score

{"columns": ["binder", "interaction score"],
 "data": [
  ["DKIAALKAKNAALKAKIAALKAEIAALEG [4H3049-AA]", 1.1],
  ["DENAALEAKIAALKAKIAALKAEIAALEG [4H1385-AA]", 1.56],
  ["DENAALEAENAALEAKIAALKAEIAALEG [4H1193-AA]", 2.18],
  ["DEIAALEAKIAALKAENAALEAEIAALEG [4H337-AA]", 2.08],
  ["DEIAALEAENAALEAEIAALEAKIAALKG [4H134-AA]", 2]
]}

A = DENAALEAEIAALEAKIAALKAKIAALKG [4H1070-AA]
B = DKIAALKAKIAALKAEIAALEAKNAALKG [4H2888-AA]
In: Between A and B , whose recorded interaction score is greater? API: response body contains the label of the selected item.
Out: A
(A: 1.53, B: 0.103)
